Target: T1, recombinant monomeric human TIGIT-His (human, UniProt Q495A1 22-141)
T1 construct: also called hTIGIT; not shown: His tag
T1 sequence: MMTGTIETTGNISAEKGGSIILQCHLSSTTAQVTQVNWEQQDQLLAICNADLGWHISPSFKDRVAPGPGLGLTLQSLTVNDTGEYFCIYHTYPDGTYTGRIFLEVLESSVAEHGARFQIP
Assay: BLI (ForteBio), IgG on AHQ sensor, 100 nM monomeric antigen, 1:1 model
measured.attribute: pKd
Answer as the number alone; pKd is minus log10 of concentration in mol/L.

A selection of reference data follows.
MAB16-IgG4 (antibody, V domains shown) VH: QVQLVQSGAEVKKPGASVKVSCKASGYTFREYYMHWVRQAPGQGLEWMGIINPSIGLTSYARKFQGRVTMTRDTSTSTVYMELSSLRSEDTAVYYCARGGRTTWIGALDIWGQGTMVTVSS VL: EIVMTQSPATLSVSPGERATLSCRASQSVSSNLAWYQQKPGQAPRLLIYGASTRATGIPARFSGSGSGTEFTLTISSLQSEDFAVYYCQQYVVWPPLTFGGGTKVEIKR    9.42
MAB18-IgG4 (antibody, V domains shown) VH: QVQLVQSGAEVKKPGASVKVSCKASGYTFPAYYMHWVRQAPGQGLEWMGIINPSLGLTSYARKFQGRVTMTRDTSTSTVYMELSSLRSEDTAVYYCARGGRTTWIGAFDIWGQGTMVTVSS VL: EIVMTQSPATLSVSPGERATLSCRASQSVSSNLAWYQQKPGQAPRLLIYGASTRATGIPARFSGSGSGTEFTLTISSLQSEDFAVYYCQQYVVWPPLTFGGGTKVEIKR    9.35
MAB14-IgG4 (antibody, V domains shown) VH: QVQLVQSGAEVKKPGASVKVSCKASGYTFPAYYMHWVRQAPGQGLEWMGIINPSLGLTSYAQKFQGRVTMTRDTSTSTVYMELSSLRSEDTAVYYCARGGRTTWIGAFDIWGQGTMVTVSS VL: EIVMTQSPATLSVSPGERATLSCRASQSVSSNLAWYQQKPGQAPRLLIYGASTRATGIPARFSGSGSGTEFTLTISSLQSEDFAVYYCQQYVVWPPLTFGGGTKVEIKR    8.91
MAB4-IgG4 (antibody, V domains shown) VH: QLQLQESGPGLVKPSETLSLTCTVSGGSISSTSHYWGWIRQPPGKGLEWIGSIYYSGSTFYNPSLKSRVTISVDTSKNQFSLKLSSVTAADTAVYYCARDANYYGGAWAFDPWGQGTLVTVSS VL: EIVLTQSPATLSLSPGERATLSCRASQSVSSYLAWYQQKPGQAPRLLIYDASNRATGIPARFSGSGSGTDFTLTISSLEPEDFAVYYCQQHFNLPTFGGGTKVEIKR    9.61

Please look at the following binder next.
Per the records, this binder ( MAB3-IgG4 (antibody, V domains shown) VH: QLQLQESGPGLVKPSETLSLTCTVSGGSISSTSHYWGWIRQPPGKGLEWIGSIYYSGSTFYNPSLKSRVTISVDTSKNQFSLKLSSVTAADTAVYYCARDANYYGSAWAFDPWGQGTLVTVSS VL: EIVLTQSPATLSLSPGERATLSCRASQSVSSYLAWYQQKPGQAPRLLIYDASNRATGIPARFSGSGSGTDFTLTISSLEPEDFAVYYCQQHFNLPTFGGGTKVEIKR ) has pKd equal to 9.48

Origin of the recorded values: patent US20170340735A1
